// data source = ChEMBL document CHEMBL5241085

# PROTOCOL_DETAILS: Inhibition of urease (unknown origin) measured after 20 mins
Quick list: IC50 per entry.
Number in µM, nothing else.

So what's the measured IC50 for this one? `CCOc1ccc(S(=O)(=O)N[C@H](CO)CC(C)C)cc1-c1nnc2c(n1)c(C)nn2C` 0.042

Which IC50 reading was recorded for the compound `CCOc1ccc(S(=O)(=O)N[C@@H](C)CO)cc1-c1nnc2c(n1)c(C)nn2C` ? 0.037

What does the record list as IC50 for `CCOc1ccc(S(=O)(=O)NC[C@@H](C)O)cc1-c1nnc2c(n1)c(C)nn2C` ? 0.044

Read the next record carefully.
Find the recorded IC50 belonging to NC(N)=S [THIOUREA] and report it. 20.9

====

# STUDY_TARGET: Calcitonin gene-related peptide 1 (Homo sapiens, UniProt P06881)
# Sequence (P06881 whole entry): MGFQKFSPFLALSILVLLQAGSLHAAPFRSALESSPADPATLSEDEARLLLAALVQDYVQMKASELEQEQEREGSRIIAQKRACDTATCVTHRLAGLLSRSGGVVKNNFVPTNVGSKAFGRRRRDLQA
Recorded IC50 by entry
Please give a number only; it is taken to be in µM.

Field request: IC50 | item: `Cc1ccc(Nc2nc(N)nc3cc(-c4ccccc4)nn23)cc1` 7.6

Shift focus to the following entry.
// returns reported IC50 for input `CN(C)CCCNc1nc(N)nc2cc(-c3ccccc3)nn12` 52.2

====

# STUDY_TARGET: Amine oxidase [flavin-containing] B (Homo sapiens, UniProt P27338)
# Sequence (P27338 whole entry): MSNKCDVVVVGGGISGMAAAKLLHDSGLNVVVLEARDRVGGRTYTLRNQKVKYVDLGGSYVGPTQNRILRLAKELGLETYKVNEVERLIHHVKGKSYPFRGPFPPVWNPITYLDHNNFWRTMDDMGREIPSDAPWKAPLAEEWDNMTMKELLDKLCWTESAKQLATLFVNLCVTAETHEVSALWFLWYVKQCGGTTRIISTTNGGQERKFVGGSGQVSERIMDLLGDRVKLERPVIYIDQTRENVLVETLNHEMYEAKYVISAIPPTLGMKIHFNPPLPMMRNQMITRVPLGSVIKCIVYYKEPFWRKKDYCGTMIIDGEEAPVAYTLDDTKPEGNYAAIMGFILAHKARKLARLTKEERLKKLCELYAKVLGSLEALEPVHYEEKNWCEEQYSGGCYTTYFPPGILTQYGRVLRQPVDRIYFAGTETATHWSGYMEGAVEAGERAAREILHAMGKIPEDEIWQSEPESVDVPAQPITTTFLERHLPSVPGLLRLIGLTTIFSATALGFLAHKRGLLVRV
METRIC: pIC50
pIC50 (log units): -log10 of the concentration in mol/L.

Entry `CCSc1nc(-c2ccc(C)cc2)n2nc(C)cc2n1` has what pIC50? 4.61

====

Observed pIC50, system Cyclin-dependent kinase 2 (Homo sapiens).
In simple prose, pIC50 is minus the logarithm base ten of a concentration in moles per litre.

Can you look up pIC50 on Cyclin-dependent kinase 2 (Homo sapiens) for `O=C(NCCc1ccccc1)c1cnn2c(-c3ccc(Cl)cc3)nc(NCCc3ccccc3)nc12` ? 5.68

***
Look up pIC50 with Cyclin-dependent kinase 2 (Homo sapiens) for this molecule: `CCOC(=O)c1cnn2c(-c3ccc(Cl)cc3)nc(NCc3ccccc3)nc12` 5.73

====

# STUDY_TARGET: UniProt:P27487
# Sequence (P27487 whole entry): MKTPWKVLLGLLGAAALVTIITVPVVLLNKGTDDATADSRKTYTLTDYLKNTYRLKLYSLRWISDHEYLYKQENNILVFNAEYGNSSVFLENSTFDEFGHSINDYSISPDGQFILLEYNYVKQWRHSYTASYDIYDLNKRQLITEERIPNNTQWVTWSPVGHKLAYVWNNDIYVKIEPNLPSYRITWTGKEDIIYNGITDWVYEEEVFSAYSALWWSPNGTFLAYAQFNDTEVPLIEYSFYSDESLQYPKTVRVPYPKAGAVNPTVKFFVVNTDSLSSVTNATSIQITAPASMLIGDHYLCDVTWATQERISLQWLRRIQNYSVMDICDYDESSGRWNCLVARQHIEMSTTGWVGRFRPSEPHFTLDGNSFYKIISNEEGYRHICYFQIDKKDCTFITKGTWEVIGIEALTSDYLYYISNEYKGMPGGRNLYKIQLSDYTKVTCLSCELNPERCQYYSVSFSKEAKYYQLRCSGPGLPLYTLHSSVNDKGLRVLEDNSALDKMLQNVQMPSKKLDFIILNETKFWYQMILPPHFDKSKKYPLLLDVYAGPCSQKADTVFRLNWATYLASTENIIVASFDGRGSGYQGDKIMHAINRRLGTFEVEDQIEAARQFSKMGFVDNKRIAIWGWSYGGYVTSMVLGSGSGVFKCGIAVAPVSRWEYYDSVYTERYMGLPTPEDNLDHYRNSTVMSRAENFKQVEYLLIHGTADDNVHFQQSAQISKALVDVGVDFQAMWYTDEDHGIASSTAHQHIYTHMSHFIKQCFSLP
# PROTOCOL_DETAILS: Inhibition of DPP4 (unknown origin)
METRIC: IC50 (µM)
Unit µM implied. Number only.

Could you share which IC50 value was measured for `CCOC(=O)c1n[nH]c2c(C(=O)OCC)cnn2c1=O` ? 54

Let's switch to this molecule now.
What does the record list as IC50 for `CCOC(=O)c1cnn2c(=O)c(C(=O)NC(C)(C)C)n[nH]c12` ? 48.1

====

# PROTOCOL_DETAILS: Half life in Sprague-Dawley rat at 1 mg/kg
# Format: ADME, organism-based
# REPORTED_CONDITIONS: in vivo
METRIC: half-life (min)
Note: unit min is implicit; provide only the numeric part.

Bench note: what half-life did `Cc1cc(-c2nncc3c(C(C)(C)C)c(OCc4ncnn4C)nn23)no1` show? 30

====

# PROTOCOL_DETAILS: Half life in human
# Format: ADME
METRIC: half-life (h)
Hi! Could you send only the number? It should be in h, unit omitted.

Need half-life of `Cc1cc(-c2nncc3c(C(C)(C)C)c(OCc4ncnn4C)nn23)no1` , thanks. 3.5
